METHOD_NOTES: Quantitative highthroughput screen to assess conditional lethalithy of P12 Ichikawa cells grown in RPMI1640 with dialyzed fetal bovine serum (RPMI+ds) (AID 1963880); note: nearly all actives have a fitted effect of over 35% in size
CONDITION_DESCRIPTION: ATP luminescence, 48 h; P12-Ichikawa viability; series mostly up to 45.8 µM
Inconclusive results are not listed. Activity calls are given as the source filed them. Calls come from the whole dose curve; as a rule, active = well fitted cell-killing curve with a large enough effect; inconclusive = small, poorly fitted or top-dose-only effect; inactive = flat fitted curve, though single readings scatter.
Possible outcomes: active, inactive

[[record]]
compound = "COc1cc2nc(N3CCCN(C)CC3)nc(NC3CCN(Cc4ccccc4)CC3)c2cc1OC"
class_name = "active"

[[record]]
compound = "CCCCC(F)(F)[C@@]1(O)CC[C@H]2[C@H](CC(=O)[C@@H]2CCCCCCC(=O)O)O1"
class_name = "inactive"

[[record]]
compound = "CC(NCc1ccc2c(c1)nc(NC(=O)c1ccc(-c3cn[nH]c3)s1)n2CC(C)(C)O)C(C)(C)C (stereo not drawn)"
class_name = "active"

[[record]]
compound = "COc1ccc2c(c1)c(CC(=O)OCC(=O)O)c(C)n2C(=O)c1ccc(Cl)cc1"
class_name = "inactive"

[[record]]
compound = "COc1ccc(CC2SC(=O)NC2=O)cc1C(=O)NCc1ccc(C(F)(F)F)cc1 (stereo not drawn)"
class_name = "inactive"

[[record]]
compound = "CC[C@H](CO)Nc1nc(NCc2ccccc2)c2ncn(C(C)C)c2n1"
class_name = "inactive"

[[record]]
compound = "CCCCOc1ccc(C(=O)Nc2ccc(F)cc2F)cc1"
class_name = "inactive"

[[record]]
compound = "NC1CCC(N[C@@H]2C[C@H]2c2ccccc2)CC1 (stereo partly drawn)"
class_name = "inactive"

[[record]]
compound = "COc1ccc2c(c1)c(CC(=O)O)c(C)n2C(=O)c1ccc(Cl)cc1"
class_name = "inactive"

[[record]]
compound = "O=c1cc(-c2ccc(O)c(O)c2)oc2cc(O)cc(O)c12"
class_name = "inactive"

[[record]]
compound = "CCOc1cc(N)c(Cl)cc1C(=O)NCC1CN(Cc2ccc(F)cc2)CCO1 (stereo not drawn)"
class_name = "inactive"

[[record]]
compound = "Cn1cc(C[C@@H](N)C(=O)O)c2ccccc21"
class_name = "inactive"

[[record]]
compound = "O=C(O)[C@H](Cc1c[nH]c2ccccc12)N1C(=O)c2ccccc2C1=O"
class_name = "inactive"

[[record]]
compound = "COc1ccc2c(c1)CC[C@H]1[C@@H]2CC[C@]2(C)[C@@H](NCCCCCCN3C(=O)C=CC3=O)CC[C@H]12"
class_name = "inactive"

[[record]]
compound = "CC(O)C1C(=O)N2C(C(=O)O)=C(SC3CNC(C(=O)N(C)C)C3)C(C)C12 (stereo not drawn)"
class_name = "inactive"

[[record]]
compound = "CC1CCN(c2cc(N3CCN(C)CC3)ccc2NC(=O)c2cc(C#N)c[nH]2)CC1"
class_name = "inactive"

[[record]]
compound = "c1cc(OCCN2CCCCC2)cc(-c2n[nH]c3ccc(-c4ncn[nH]4)cc23)c1"
class_name = "inactive"

[[record]]
compound = "COc1cc(F)c(C(C)C)cc1-c1ccc(C(F)(F)F)cc1CN1C(=O)O[C@H](c2cc(C(F)(F)F)cc(C(F)(F)F)c2)[C@@H]1C"
class_name = "inactive"

[[record]]
compound = "Cc1coc2c1C(=O)C(=O)c1c-2ccc2c1CCCC2(C)C"
class_name = "inactive"

[[record]]
compound = "CO[C@H]1C=CC=C(C)C(=O)NC2=CC(=O)C(NCCN(C)C)=C(C[C@@H](C)C[C@H](OC)[C@@H](O)[C@@H](C)C=C(C)[C@@H]1OC(N)=O)C2=O"
class_name = "active"

[[record]]
compound = "CC[C@@]1(O)C(=O)OCc2c1cc1n(c2=O)Cc2cc3c(CN(C)C)c(O)ccc3nc2-1"
class_name = "active"

[[record]]
compound = "COCCCOc1cc(C[C@@H](C[C@H](N)[C@@H](O)C[C@H](C(=O)NCC(C)(C)C(N)=O)C(C)C)C(C)C)ccc1OC"
class_name = "inactive"

[[record]]
compound = "COc1ccc(Cc2ccc(NC(N)=O)cc2)cc1-c1cccc(Cl)c1"
class_name = "inactive"

[[record]]
compound = "O=C(O)Cn1nnc(-c2cc(N3CCC(Oc4cc(F)ccc4Br)CC3)no2)n1"
class_name = "active"

[[record]]
compound = "O=C(CCCCCCC(=O)Nc1cccnc1)NO"
class_name = "active"

[[record]]
compound = "O=C(C1CC1)N1CC[C@@H](Cn2c(-c3ccc(-c4ccc5occc5c4)cc3)nc3cnccc32)C1"
class_name = "inactive"

[[record]]
compound = "COc1cc(OC)c(C(=O)CCCN2CCCC2)c(OC)c1"
class_name = "inactive"

[[record]]
compound = "Nc1ccccc1NC(=O)c1ccc(CNC(=O)OCc2cccnc2)cc1"
class_name = "active"

[[record]]
compound = "O=C1c2c(O)cccc2[C@@H]([C@@H]2O[C@H](CO)[C@@H](O)[C@H](O)[C@H]2O)c2cc(CO)cc(O)c21"
class_name = "inactive"

[[record]]
compound = "Cn1cc(-c2cnn3c(N)c(Br)c([C@H]4CCCNC4)nc23)cn1"
class_name = "active"

[[record]]
compound = "CC[C@]1(O)C[C@@H]2CN(CCc3c([nH]c4ccccc34)[C@@](C(=O)OC)(c3cc4c(cc3OC)N(C=O)[C@@H]3C45CCN4CC=C[C@](CC)([C@H]45)[C@@H](OC(C)=O)[C@]3(O)C(=O)OC)C2)C1 (stereo partly drawn)"
class_name = "inactive"

[[record]]
compound = "CCN(CC)CCCC(C)Nc1nc(C)cc(Nc2ccc3nc(C)cc(N)c3c2)n1 (stereo not drawn)"
class_name = "inactive"

[[record]]
compound = "CCn1cc(C(=O)O)c(=O)c2ccc(C)nc21"
class_name = "inactive"

[[record]]
compound = "CC1=C(CC(=O)O)c2cc(F)ccc2C1=Cc1ccc(S(C)=O)cc1 (stereo not drawn)"
class_name = "inactive"

[[record]]
compound = "CN(C)c1nc(N(C)C)nc(N(C)C)n1"
class_name = "inactive"

[[record]]
compound = "CCCNC(=O)Nc1ccc(Oc2ncnc3cc(OC)c(OC)cc23)cc1Cl"
class_name = "inactive"

[[record]]
compound = "CC=C1NC(=O)[C@H]2CSSCCC=C[C@H](CC(=O)N[C@H](C(C)C)C(=O)N2)OC(=O)[C@H](C(C)C)NC1=O"
class_name = "active"

[[record]]
compound = "CN(C)c1ccc(C(=O)NCCCCCCC(=O)NO)cc1"
class_name = "active"

